The values you see were collected from patent US9642839B2.

- Target or test system: TrkA (Homo sapiens, UniProt P04629)
- Sequence (P04629 33-796, species assumed): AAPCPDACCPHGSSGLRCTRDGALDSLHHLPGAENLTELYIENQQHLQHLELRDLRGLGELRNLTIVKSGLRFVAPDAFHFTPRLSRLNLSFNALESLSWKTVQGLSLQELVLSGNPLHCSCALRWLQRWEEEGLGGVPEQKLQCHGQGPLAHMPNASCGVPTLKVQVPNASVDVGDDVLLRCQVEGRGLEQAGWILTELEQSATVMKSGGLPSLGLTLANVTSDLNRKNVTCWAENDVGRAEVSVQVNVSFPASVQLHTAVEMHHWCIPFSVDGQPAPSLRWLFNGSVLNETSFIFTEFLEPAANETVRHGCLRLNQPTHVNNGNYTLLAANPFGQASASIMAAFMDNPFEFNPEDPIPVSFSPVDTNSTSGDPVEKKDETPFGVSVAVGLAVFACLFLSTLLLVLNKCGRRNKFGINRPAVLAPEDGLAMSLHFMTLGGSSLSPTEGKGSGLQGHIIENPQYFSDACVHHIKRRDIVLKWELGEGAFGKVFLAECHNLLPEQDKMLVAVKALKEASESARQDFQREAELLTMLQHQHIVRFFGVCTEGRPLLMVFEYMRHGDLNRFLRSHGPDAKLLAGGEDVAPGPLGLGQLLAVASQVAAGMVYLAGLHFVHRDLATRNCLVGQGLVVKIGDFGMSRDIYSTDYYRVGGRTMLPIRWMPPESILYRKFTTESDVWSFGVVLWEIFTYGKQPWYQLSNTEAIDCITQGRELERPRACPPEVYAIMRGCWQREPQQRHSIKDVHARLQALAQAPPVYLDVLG
Readout type: IC50 (nM)
Kindly answer with a numeric value in nM, unit omitted.

Given the entry Cc1ccccc1NS(=O)(=O)c1ccc2c(c1)/C(=C/c1nc3ccccc3[nH]1)C(=O)N2 [Indo 5] , report its measured IC50. 22

====

- Target or test system: FGFR
- Protocol description: Kinase Glo Plus kinase activity assay
pIC50: −log10 of the molar value.
Readout type: pIC50

Given the entry `Cc1ccccc1NS(=O)(=O)c1ccc2c(c1)/C(=C/c1nc3ccccc3[nH]1)C(=O)N2` , report its measured pIC50. < 5.00
